Target: T1, Human TREM2 extracellular domain (ECD), residues 19-131, C-terminally biotinylated, deglycosylated (human, UniProt Q9NZC2 19-131, C-terminally biotinylated; deglycosylated)
T1 construct: range 19-131; loaded on Superstreptavidin biosensors; also called triggering receptor expressed on myeloid cells 2; Human BLI (deglycosylated)
T1 sequence (looked up): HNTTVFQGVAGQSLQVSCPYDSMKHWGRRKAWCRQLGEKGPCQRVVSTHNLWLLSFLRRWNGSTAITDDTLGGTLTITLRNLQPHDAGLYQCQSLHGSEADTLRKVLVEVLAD
Assay: BLI steady state, deglycosylated human TREM2 ECD on sensor
*1 amine or outer side, *2 acyl side, *3 side chain or, on linkers, in order; H or OH if unused. Bridges are numbered along the chain shown (N, C = ends). Where no end group is shown, it is not given here. TATA = O=C(CC[*:1])N1CN(C(=O)CC[*:2])CN(C(=O)CC[*:3])C1
Documented Kd across a set of binders

>  <binder>
Ac-CSEYCFWPFYQC (linker 1-5-12 via TATA) [BCY20572]

>  <Kd>
1060 nM

$$$$
>  <binder>
ACSEYCFWPFYHCA (linker 2-6-13 via TATA) [BCY16054]

>  <Kd>
700 nM

$$$$
>  <binder>
CSEYCXWPFYHC (N-terminal acetyl (Ac); CiSEYCii[4FPhe]WPFYHCiii; Ci, Cii, Ciii on TATA scaffold) [BCY20053]

>  <Kd>
2010 nM

$$$$
>  <binder>
ACSAYCFWPFYHCA (linker 2-6-13 via TATA) [BCY18221]

>  <Kd>
1800 nM

$$$$
>  <binder>
Ac-CSEYCFWPFYSC (linker 1-5-12 via TATA) [BCY20084]

>  <Kd>
1650 nM

$$$$
>  <binder>
ACSEYCFWPFFLCA (linker 2-6-13 via TATA) [BCY19776]

>  <Kd>
750 nM

$$$$
